tested on: Ba/F3 KIF5B-RET^V804M; experiment: Cytotoxicity assay (CellTiter-Glo), Ba/F3 KIF5B-RET V804M; assay type: cell-based; settings: Mus musculus, BaF3; cell viability, 72 hours, CTG
Reported IC50 is given for each of the following compounds.
Report the value in nM with no unit label.

Examples from the recorded data:
[2H]C([2H])([2H])Oc1ccc(C([2H])([2H])N2C3CC2CN(c2ccc(-c4cc(OCC(C)(C)O)cn5ncc(C#N)c45)cn2)C3)cn1: 90
[2H]C([2H])(c1ccc(OC)nc1)N1C2CC1CN(c1ccc(-c3cc(OCC(C)(C)O)cn4ncc(C#N)c34)cn1)C2: 40.5

For the next question, use this compound.
// lookup IC50 for [2H]C([2H])([2H])Oc1ccc(CN2C3CC2CN(c2ccc(-c4cc(OCC(C)(C)O)cn5ncc(C#N)c45)cn2)C3)cn1 45.2
